# Test system: MCF-7 cell line
# Format: cell-based
# MEASUREMENT PARAMETERS: 24 hours incubation, XTT; read-out: Cancer LC50 Human breast cancer MCF-7
Non-standard residues stand in square brackets, D forms with d. Residues, ends and D or L forms follow the SMILES beside them. 12Ado = NCCCCCCCCCCCC(=O)O
QUANTITY MEASURED: CC50 (µM)
Write down the numeric answer in µM and omit the unit.

compound="NCCCCCCCCCCCC(=O)N[C@@H](CCCCN)C(=O)N[C@@H](CCCCN)C(=O)NCCCCCCCCCCCC(=O)N[C@@H](CCCCN)C(=O)N[C@@H](CCCCN)C(=O)NCCCCCCCCCCCC(=O)N[C@@H](CCCCN)C(=O)N[C@@H](CCCCN)C(=O)NCCCCCCCCCCCC(=O)N[C@@H](CCCCN)C(N)=O (H-[12Ado]KK[12Ado]KK[12Ado]KK[12Ado]K-NH2)" data_value=7

Could you now consider this next compound?
Please report the recorded CC50 for NCCCCCCCCCCCC(=O)N[C@@H](CCCCN)C(=O)NCCCCCCCCCCCC(=O)N[C@@H](CCCCN)C(=O)N[C@@H](CCCCN)C(=O)NCCCCCCCCCCCC(=O)N[C@@H](CCCCN)C(=O)N[C@@H](CCCCN)C(=O)NCCCCCCCCCCCC(=O)N[C@@H](CCCCN)C(N)=O [NC12(KNC12K)3NH2] (H-[12Ado]K[12Ado]KK[12Ado]KK[12Ado]K-NH2) . 7

Cited source: patent US20100173832A1
